These data points were gathered from ChEMBL document CHEMBL4414587.

Experiment: AUC (0 to t) in Long-Evans rat plasma at 10 mg/kg, po measured up to 24 hrs by LC/MS/MS analysis
Assay type: ADME, organism-based
Parameters: time < 24 hr, dose 10 mg/kg, route oral
MEASURED_PARAMETER: AUC(0-t) at 24 h
Note to self: number, then unit, no commentary.

AUC(0-t) at 24 h lookup needed for CCc1cc(Cl)c(OC)c(N2CCN(C[C@@H](O)CCNC(=O)c3cc4ccccc4[nH]3)CC2)c1 , thanks.
1.07 µM·h

AUC(0-t) at 24 h lookup needed for CCc1cc(Cl)c(OC)c(N2CCN(C[C@H](O)CCNC(=O)c3cc4ccccc4[nH]3)CC2)c1 , thanks.
2.2 µM·h

###

Assign Tmax to each entry below.
Experiment: Tmax in Long-Evans rat brain at 10 mg/kg, po measured up to 24 hrs by LC/MS/MS analysis
Type: ADME, organism-based
Note to self: number, then unit, no commentary.

Tmax lookup needed for CCc1cc(Cl)c(OC)c(N2CCN(C[C@@H](O)CCNC(=O)c3cc4ccccc4[nH]3)CC2)c1 , thanks.
4 h

Tmax lookup needed for CCc1cc(Cl)c(OC)c(N2CCN(C[C@H](O)CCNC(=O)c3cc4ccccc4[nH]3)CC2)c1 , thanks.
4 h

Tmax lookup needed for CCc1cccc(N2CCN(C[C@H](O)CCNC(=O)c3cc4ccccc4[nH]3)CC2)c1Cl , thanks.
2 h

Tmax lookup needed for CCc1cccc(N2CCN(C[C@@H](O)CCNC(=O)c3cc4ccccc4[nH]3)CC2)c1Cl , thanks.
2 h

###

Assign remaining at 1 h, 10 µM to each entry below.
Experiment: Metabolic stability in rat liver microsomes assessed as parent compound remaining at 10 uM measured after 60 mins in presence of NADPH regenerating system by LC/MS/MS analysis
Assay type: ADME, Microsome
Conditions: read-out: Stability

remaining at 1 h, 10 µM lookup needed for CCc1cccc(N2CCN(CC(O)CCNC(=O)c3cc4ccccc4[nH]3)CC2)c1Cl (racemic) , thanks.
57 to 86%

remaining at 1 h, 10 µM lookup needed for CCc1cccc(N2CCN(CC(F)CCNC(=O)c3cc4ccccc4o3)CC2)c1Cl (centres undefined) , thanks.
34%

remaining at 1 h, 10 µM lookup needed for CCc1cccc(N2CCN(C[C@H](O)CCNC(=O)c3cc4ccccc4[nH]3)CC2)c1Cl , thanks.
57 to 86%

remaining at 1 h, 10 µM lookup needed for CCc1cc(Cl)c(OC)c(N2CCN(CC(F)CCNC(=O)c3cc4ccccc4o3)CC2)c1 (centres undefined) , thanks.
12%

remaining at 1 h, 10 µM lookup needed for CCc1cc(Cl)c(OC)c(N2CCN(C[C@H](F)CCNC(=O)c3cc4ccccc4[nH]3)CC2)c1 , thanks.
57 to 70%

remaining at 1 h, 10 µM lookup needed for CCc1cc(Cl)c(OC)c(N2CCN(C[C@@H](F)CCNC(=O)c3cc4ccccc4[nH]3)CC2)c1 , thanks.
57 to 70%

remaining at 1 h, 10 µM lookup needed for CCc1cccc(N2CCN(CC(F)CCNC(=O)c3cc4ccccc4[nH]3)CC2)c1Cl (racemic) , thanks.
38%

remaining at 1 h, 10 µM lookup needed for CCc1cccc(N2CCN(C[C@@H](O)CCNC(=O)c3cc4ccccc4[nH]3)CC2)c1Cl , thanks.
57 to 86%

remaining at 1 h, 10 µM lookup needed for CCc1cccc(N2CCN(C[C@@H](F)CCNC(=O)c3cc4ccccc4[nH]3)CC2)c1Cl , thanks.
57 to 70%

remaining at 1 h, 10 µM lookup needed for CCc1cc(Cl)c(OC)c(N2CCN(C[C@H](O)CCNC(=O)c3cc4ccccc4[nH]3)CC2)c1 , thanks.
57 to 86%

remaining at 1 h, 10 µM lookup needed for CCc1cc(Cl)c(OC)c(N2CCN(CC(F)CCNC(=O)c3cc4ccccc4[nH]3)CC2)c1 (racemic) , thanks.
75%

remaining at 1 h, 10 µM lookup needed for CCc1cc(Cl)c(OC)c(N2CCN(C[C@@H](O)CCNC(=O)c3cc4ccccc4[nH]3)CC2)c1 , thanks.
57 to 86%

remaining at 1 h, 10 µM lookup needed for CCc1cc(Cl)c(OC)c(N2CCN(CC(O)CCNC(=O)c3cc4ccccc4[nH]3)CC2)c1 (racemic) , thanks.
57 to 86%

remaining at 1 h, 10 µM lookup needed for CCc1cccc(N2CCN(C[C@H](F)CCNC(=O)c3cc4ccccc4[nH]3)CC2)c1Cl , thanks.
57 to 70%

###

Test: Cmax in Long-Evans rat brain at 10 mg/kg, po measured up to 24 hrs by LC/MS/MS analysis
Assay type: ADME, organism-based
Parameters: dose 10 mg/kg, route oral
Settings: in vivo
Assign Cmax to each entry below.

Cmax lookup needed for CCc1cc(Cl)c(OC)c(N2CCN(C[C@@H](O)CCNC(=O)c3cc4ccccc4[nH]3)CC2)c1 , thanks.
959.9 pmol/g

Cmax lookup needed for CCc1cccc(N2CCN(C[C@@H](O)CCNC(=O)c3cc4ccccc4[nH]3)CC2)c1Cl , thanks.
2670 to 3670 pmol/g

Cmax lookup needed for CCc1cc(Cl)c(OC)c(N2CCN(C[C@H](O)CCNC(=O)c3cc4ccccc4[nH]3)CC2)c1 , thanks.
1796.6 pmol/g

Cmax lookup needed for CCc1cccc(N2CCN(C[C@H](O)CCNC(=O)c3cc4ccccc4[nH]3)CC2)c1Cl , thanks.
3850 pmol/g

###

Biological target: D(3) dopamine receptor (Homo sapiens)
Sequence (P35462 whole entry): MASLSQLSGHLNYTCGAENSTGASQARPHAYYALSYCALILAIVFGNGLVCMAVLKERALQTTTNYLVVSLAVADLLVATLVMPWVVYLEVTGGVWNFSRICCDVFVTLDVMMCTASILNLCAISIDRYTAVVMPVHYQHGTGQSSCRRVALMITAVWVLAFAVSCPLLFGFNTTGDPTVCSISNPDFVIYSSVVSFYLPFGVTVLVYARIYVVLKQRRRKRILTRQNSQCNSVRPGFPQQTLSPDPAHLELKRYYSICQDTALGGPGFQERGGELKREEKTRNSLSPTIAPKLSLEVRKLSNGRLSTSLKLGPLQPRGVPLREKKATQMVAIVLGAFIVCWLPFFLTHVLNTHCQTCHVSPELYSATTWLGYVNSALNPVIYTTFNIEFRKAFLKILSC
MEASURED_PARAMETER: Ki (nM)
Entry rule: numbers only, all in nM.

Ki lookup needed for CCc1cccc(N2CCN(CC(O)CCNC(=O)c3ccc4c(c3)OCO4)CC2)c1Cl (stereo unspecified) , thanks.
3.02

###

Assign Activity to each entry below.
Target: UniProtKB P35462
Assay: Agonist activity at human D3 receptor expressed in CHO cells assessed as stimulation of quinpirole-induced mitogenesis relative to control
Format: cell-based
Design: concentration or dose not given beside the values
Entry rule: numbers only, all in %.

Enter reported Activity observed with UniProtKB P35462 for CCc1cc(Cl)c(OC)c(N2CCN(CC(F)CCNC(=O)c3cc4ccccc4[nH]3)CC2)c1 (racemic)
2.7

Enter reported Activity observed with UniProtKB P35462 for CCc1cccc(N2CCN(CC(F)CCNC(=O)c3cc4ccccc4o3)CC2)c1Cl (stereo unspecified)
15.5

Enter reported Activity observed with UniProtKB P35462 for CCc1cc(Cl)c(OC)c(N2CCN(C[C@H](O)CCNC(=O)c3cc4ccccc4[nH]3)CC2)c1
17.7

Enter reported Activity observed with UniProtKB P35462 for CCc1cc(Cl)c(OC)c(N2CCN(CC(F)CCNC(=O)c3cc4ccccc4o3)CC2)c1 (stereo unspecified)
5.1

Enter reported Activity observed with UniProtKB P35462 for CCc1cc(Cl)c(OC)c(N2CCN(C[C@@H](O)CCNC(=O)c3cc4ccccc4[nH]3)CC2)c1
17

Enter reported Activity observed with UniProtKB P35462 for CCc1cccc(N2CCN(CC(F)CCNC(=O)c3cc4ccccc4[nH]3)CC2)c1Cl (racemic)
5.4

###

Target: D(3) dopamine receptor (Homo sapiens)
Assay: Agonist activity at human D3 receptor expressed in CHO cells assessed as stimulation of quinpirole-induced mitogenesis
pEC50: −log10 of the molar value.
MEASURED_PARAMETER: pEC50

Enter reported pEC50 observed with D(3) dopamine receptor (Homo sapiens) for CCc1cccc(N2CCN(CC(F)CCNC(=O)c3cc4ccccc4o3)CC2)c1Cl (centres undefined)
< 5.12

Enter reported pEC50 observed with D(3) dopamine receptor (Homo sapiens) for CCc1cc(Cl)c(OC)c(N2CCN(CC(F)CCNC(=O)c3cc4ccccc4[nH]3)CC2)c1 (racemic)
< 5.27

Enter reported pEC50 observed with D(3) dopamine receptor (Homo sapiens) for CCc1cccc(N2CCN(CC(F)CCNC(=O)c3cc4ccccc4[nH]3)CC2)c1Cl (racemic)
< 5.17

Enter reported pEC50 observed with D(3) dopamine receptor (Homo sapiens) for CCc1cc(Cl)c(OC)c(N2CCN(CC(F)CCNC(=O)c3cc4ccccc4o3)CC2)c1 (centres undefined)
< 5.40

###

Assay: Cmax in Long-Evans rat plasma at 10 mg/kg, po measured up to 24 hrs by LC/MS/MS analysis
Format: ADME, organism-based
Design: dose 10 mg/kg, route oral
MEASURED_PARAMETER: Cmax

Cmax lookup needed for CCc1cccc(N2CCN(C[C@H](O)CCNC(=O)c3cc4ccccc4[nH]3)CC2)c1Cl , thanks.
291 to 306 nM

###

Assay: AUC (0 to t) in Long-Evans rat brain at 10 mg/kg, po measured up to 24 hrs by LC/MS/MS analysis
Type: ADME, organism-based
Conditions: in vivo
MEASURED_PARAMETER: AUCt

AUCt lookup needed for CCc1cccc(N2CCN(C[C@H](O)CCNC(=O)c3cc4ccccc4[nH]3)CC2)c1Cl , thanks.
21600 pmol·h/g

AUCt lookup needed for CCc1cc(Cl)c(OC)c(N2CCN(C[C@@H](O)CCNC(=O)c3cc4ccccc4[nH]3)CC2)c1 , thanks.
4360 pmol·h/g

AUCt lookup needed for CCc1cc(Cl)c(OC)c(N2CCN(C[C@H](O)CCNC(=O)c3cc4ccccc4[nH]3)CC2)c1 , thanks.
8412 pmol·h/g

AUCt lookup needed for CCc1cccc(N2CCN(C[C@@H](O)CCNC(=O)c3cc4ccccc4[nH]3)CC2)c1Cl , thanks.
16665 pmol·h/g
